Target: hA1AR (Homo sapiens)
Sequence (P30542 whole entry): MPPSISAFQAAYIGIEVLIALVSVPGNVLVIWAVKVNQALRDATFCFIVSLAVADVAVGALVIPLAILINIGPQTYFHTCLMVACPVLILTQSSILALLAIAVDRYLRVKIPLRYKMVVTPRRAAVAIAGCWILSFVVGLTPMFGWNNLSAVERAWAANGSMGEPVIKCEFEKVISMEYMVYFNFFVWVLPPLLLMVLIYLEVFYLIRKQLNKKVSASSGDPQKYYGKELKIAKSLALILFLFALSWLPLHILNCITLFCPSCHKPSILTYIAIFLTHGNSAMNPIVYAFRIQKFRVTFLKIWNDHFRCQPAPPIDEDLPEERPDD
Settings: cyclic AMP assay, hA1AR
assay_readout: agonist character at the A1AR (full / partial agonist)

[
  {
    "compound": "Nc1ncnc2c1ncn2[C@@H]1O[C@H](C(=O)NC2CC2)[C@@H](O)[C@H]1O [Compound 16, reference compound]",
    "endpoint_value": "full agonists"
  },
  {
    "compound": "Nc1ncnc2c1ncn2[C@@H]1O[C@H](C(=O)NC2CCCC2)[C@@H](O)[C@H]1O [Compound 22]",
    "endpoint_value": "full agonists"
  }
]
